Kindly state amyloid nucleation score for each of the entries shown.
ASSAY_PROTOCOL: amyloid nucleation score (Sup35N fusion, yeast selection) (log enrichment); library NNK2; higher = more nucleation; inactive = no reads after selection;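 also: zero at mode of non-aggregating sequences after 7 days selection at 30°C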
A bare number is all that is needed in reply.

Incoming: Entry HLSTSGYVAFLKHLTLCKVL : reported amyloid nucleation score = ?
Outgoing: -0.347

Incoming: Entry FKNTIV : reported amyloid nucleation score = ?
Outgoing: -0.343

Incoming: Entry RQYCIKDSWGSSGQLSVGLR : reported amyloid nucleation score = ?
Outgoing: 2.1

Incoming: Entry GICPWTRLALFCRSGNVYRG : reported amyloid nucleation score = ?
Outgoing: 1.34

Incoming: Entry HSTIAVSCY : reported amyloid nucleation score = ?
Outgoing: 0.219

Incoming: Entry LMVTKLSCSCFCLFSVPRSQ : reported amyloid nucleation score = ?
Outgoing: 0.783

Incoming: Entry VGLACSLS : reported amyloid nucleation score = ?
Outgoing: -1.07

Incoming: Entry QSVQFRWRLCLAGFVGTGWR : reported amyloid nucleation score = ?
Outgoing: 3.06

Incoming: Entry PIYCNQRVDRALTMFTQFRA : reported amyloid nucleation score = ?
Outgoing: -0.121

Incoming: Entry GSHLSSSFTKWMGIPAMVFR : reported amyloid nucleation score = ?
Outgoing: -0.134

Incoming: Entry QHWRLNWNEDFFMYWYGFLT : reported amyloid nucleation score = ?
Outgoing: -0.655

Incoming: Entry VPLTPLGENTECLSRARDIT : reported amyloid nucleation score = ?
Outgoing: 0.826

Incoming: Entry TWGGFRY : reported amyloid nucleation score = ?
Outgoing: 1.76

Incoming: Entry MTQRHFLVDTGRKAR : reported amyloid nucleation score = ?
Outgoing: 1.22

Incoming: Entry MYYCLGILCGVSTRRGEMSC : reported amyloid nucleation score = ?
Outgoing: 1.17

Incoming: Entry DHPYTRKFI : reported amyloid nucleation score = ?
Outgoing: -0.311

Incoming: Entry FPLLNCKRACLKAAVEAHYR : reported amyloid nucleation score = ?
Outgoing: 0.076

Incoming: Entry RAHVYSSKDP : reported amyloid nucleation score = ?
Outgoing: 5.92

Incoming: Entry DQESRNSVFSGKGGRRDVSS : reported amyloid nucleation score = ?
Outgoing: -0.134

Incoming: Entry GGRMHCARRTRMWVHLDAGM : reported amyloid nucleation score = ?
Outgoing: 5.82

Incoming: Entry LASHVVWTDKN : reported amyloid nucleation score = ?
Outgoing: 6.63

Incoming: Entry TNLFVSLPQPSVVKSSGSLQ : reported amyloid nucleation score = ?
Outgoing: 0.212

Incoming: Entry KSLYCVNFLCRPECANPSSS : reported amyloid nucleation score = ?
Outgoing: 6.59

Incoming: Entry LLVKRCSAKPNLRRLLKLMC : reported amyloid nucleation score = ?
Outgoing: -0.097

Incoming: Entry LQYCHRGC : reported amyloid nucleation score = ?
Outgoing: -0.179

Incoming: Entry SVFVGLRLGKAS : reported amyloid nucleation score = ?
Outgoing: 0.11

Incoming: Entry IYHYPKRREGVIK : reported amyloid nucleation score = ?
Outgoing: 0.224

Incoming: Entry LNGCSRILAFYMGCSCGGLM : reported amyloid nucleation score = ?
Outgoing: -1.02

Incoming: Entry YFKCGGHAFCVSNYARLNDF : reported amyloid nucleation score = ?
Outgoing: -0.573

Incoming: Entry GMRVMVLFDFLYYRCLENLL : reported amyloid nucleation score = ?
Outgoing: -0.632

Incoming: Entry VICCEVLPSAPLSLWMNLKV : reported amyloid nucleation score = ?
Outgoing: -0.469

Incoming: Entry EFILHVTQIAAIMDLRLVHM : reported amyloid nucleation score = ?
Outgoing: 4.01

Incoming: Entry DSACFYENSM : reported amyloid nucleation score = ?
Outgoing: -0.48

Incoming: Entry VSARDHLGKRNRHWINC : reported amyloid nucleation score = ?
Outgoing: -0.626
